molecular target: lectin domain of FimH (Escherichia coli); construct: The lectin domain of FimH was expressed as described previously and purified at pH 4.0; made in house; experiment: Surface plasmon resonance solution competition assay; format: binding; settings: solution affinity, measurement 1
Sequence (P08191 22-179): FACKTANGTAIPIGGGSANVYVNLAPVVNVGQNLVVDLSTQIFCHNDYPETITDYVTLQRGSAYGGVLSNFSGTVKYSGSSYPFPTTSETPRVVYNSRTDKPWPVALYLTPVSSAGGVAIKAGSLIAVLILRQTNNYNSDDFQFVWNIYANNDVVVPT
pKd: −log10 of the molar value.

| compound | assay target | pKd |
| --- | --- | --- |
| CC(=O)c1cnc(N[C@H]2O[C@H](CO)[C@@H](O)[C@H](O)[C@@H]2O)s1 [Compound 6] | lectin domain of FimH (Escherichia coli) | 6.67 |

====

target: FimH (Escherichia coli, UniProt P08191); format: binding; conditions: competitive ELISA, RNAseB substrate
Sequence (P08191 22-300): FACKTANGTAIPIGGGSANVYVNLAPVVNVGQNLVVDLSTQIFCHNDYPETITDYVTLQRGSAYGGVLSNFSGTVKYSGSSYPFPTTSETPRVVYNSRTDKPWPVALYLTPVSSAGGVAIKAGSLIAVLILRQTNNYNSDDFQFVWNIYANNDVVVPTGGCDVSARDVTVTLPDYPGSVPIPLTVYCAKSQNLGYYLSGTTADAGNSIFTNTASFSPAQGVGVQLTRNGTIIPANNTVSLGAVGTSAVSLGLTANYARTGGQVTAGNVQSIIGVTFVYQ
readout kind: Concentration blocking FimH binding towards oligomannose glycans (nM)

| compound | measured result |
| --- | --- |
| Cc1ccc(C(=O)c2cnc(N[C@H]3O[C@H](CO)[C@@H](O)[C@H](O)[C@@H]3O)s2)cc1 [Compound 11] | 50 |
| Cc1nc(-c2cnccn2)sc1C(=O)c1cnc(N[C@H]2OC(CO)[C@@H](O)[C@H](O)C2O)s1 (mixture of isomers) [Compound 13] | 5 |
| O=C(c1ccsc1)c1cnc(N[C@H]2OC(CO)[C@@H](O)[C@H](O)C2O)s1 (mixture of isomers) [Compound 12] | 50 |
| O=C(c1cccs1)c1cnc(N[C@H]2OC(CO)[C@@H](O)[C@H](O)C2O)s1 (mixture of isomers) [Compound 14] | 50 |
| O=C(c1ccccc1)c1cnc(N[C@H]2O[C@H](CO)[C@@H](O)[C@H](O)[C@@H]2O)s1 [Compound 8] | 5 |
| CC(C)(C)C(=O)c1cnc(N[C@H]2OC(CO)[C@@H](O)C(O)C2O)s1 (stereo partly shown) [Compound 9] | 50 |
| O=C(c1cnc(N[C@H]2O[C@H](CO)[C@@H](O)[C@H](O)[C@@H]2O)s1)C(F)(F)F [Compound 7] | 50 |
